# reported binding signal; entries follow
Biological target: GST-Ap-NF-kB RHD (Exaiptasia pallida (Aiptasia), UniProt A0A913YAJ5 2-422)
Sequence: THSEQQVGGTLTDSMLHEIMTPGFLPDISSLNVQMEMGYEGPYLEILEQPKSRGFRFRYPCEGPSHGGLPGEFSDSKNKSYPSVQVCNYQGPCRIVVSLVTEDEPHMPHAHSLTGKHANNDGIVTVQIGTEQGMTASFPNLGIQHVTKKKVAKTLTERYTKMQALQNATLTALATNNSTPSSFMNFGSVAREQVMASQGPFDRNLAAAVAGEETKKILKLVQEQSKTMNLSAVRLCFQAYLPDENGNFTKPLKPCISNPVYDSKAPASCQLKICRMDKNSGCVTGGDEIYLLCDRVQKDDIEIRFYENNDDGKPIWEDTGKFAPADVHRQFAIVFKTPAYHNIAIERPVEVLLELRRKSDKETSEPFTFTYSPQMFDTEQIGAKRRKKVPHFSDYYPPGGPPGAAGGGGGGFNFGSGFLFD
Assay: protein-binding microarray (PBM); PBM: ~300 nM protein, 6 mM HEPES pH 7.8, 80 mM KCl, 0.5 mM EDTA, 0.5 mM EGTA, 6% glycerol, 35 ng/ul poly-dIdC, 1% milk, 1 h, room temperature; high values mean tight binding
Settings: dsDNA, one strand shown

construct.sequence	binding signal
CCGATTAACATCAGATACTCCCCTGATGTTAATCGGGTCTTGATTCGCTTGACGCTGCTG	5.47 z-score
CCGATTAACATCAGGGGAAAGACTGATGTTAATCGGGTCTTGATTCGCTTGACGCTGCTG	4.98 z-score
CCGATTAACATCAGGGATTTCCATGATGTTAATCGGGTCTTGATTCGCTTGACGCTGCTG	4.13 z-score
CCGATTAACATCAAATACCCCCTTGATGTTAATCGGGTCTTGATTCGCTTGACGCTGCTG	8.01 z-score
CCGATTAACATCAAGGATTCCCCTGATGTTAATCGGGTCTTGATTCGCTTGACGCTGCTG	9.7 z-score
CCGATTAACATCAACAACCCCCCTGATGTTAATCGGGTCTTGATTCGCTTGACGCTGCTG	6.24 z-score
CCGATTAACATCACGGGGTGGCCTGATGTTAATCGGGTCTTGATTCGCTTGACGCTGCTG	1.24 z-score
CCGATTAACATCAGGGTAAAACCTGATGTTAATCGGGTCTTGATTCGCTTGACGCTGCTG	1.98 z-score
CCGATTAACATCACGGAATTCCCTGATGTTAATCGGGTCTTGATTCGCTTGACGCTGCTG	6.01 z-score
CCGATTAACATCAGGGAAAGGGATGATGTTAATCGGGTCTTGATTCGCTTGACGCTGCTG	2.49 z-score

====

Target: GST-Nv-NF-kB (Cys allele) (Nematostella vectensis, UniProt E5G601 2-411)
Sequence: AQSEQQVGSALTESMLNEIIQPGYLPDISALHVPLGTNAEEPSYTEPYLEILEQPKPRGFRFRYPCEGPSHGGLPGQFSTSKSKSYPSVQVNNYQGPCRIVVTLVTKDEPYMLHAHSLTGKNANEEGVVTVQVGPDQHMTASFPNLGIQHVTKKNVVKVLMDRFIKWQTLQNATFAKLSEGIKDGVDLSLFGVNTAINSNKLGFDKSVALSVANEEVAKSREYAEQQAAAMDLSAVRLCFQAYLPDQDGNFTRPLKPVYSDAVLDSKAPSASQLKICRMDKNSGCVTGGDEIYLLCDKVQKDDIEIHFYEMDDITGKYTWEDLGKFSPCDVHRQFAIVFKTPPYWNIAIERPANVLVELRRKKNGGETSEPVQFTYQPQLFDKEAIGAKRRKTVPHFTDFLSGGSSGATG
Assay: protein-binding microarray (PBM); PBM: ~300 nM protein, 6 mM HEPES pH 7.8, 80 mM KCl, 0.5 mM EDTA, 0.5 mM EGTA, 6% glycerol, 35 ng/ul poly-dIdC, 1% milk, 1 h, room temperature; high values mean tight binding
Settings: dsDNA, one strand shown
Readings of binding signal for the listed sequences
observation.type: binding signal (z-score)

construct.sequence	observation.type	value.measured
CCGATTAACATCAGGGAGTCCCATGATGTTAATCGGGTCTTGATTCGCTTGACGCTGCTG	binding signal	3.33
CCGATTAACATCAATTCCCACCCTGATGTTAATCGGGTCTTGATTCGCTTGACGCTGCTG	binding signal	2.6
CCGATTAACATCAAATTCCCTCGTGATGTTAATCGGGTCTTGATTCGCTTGACGCTGCTG	binding signal	4.96
CCGATTAACATCAGGGGAGTGGATGATGTTAATCGGGTCTTGATTCGCTTGACGCTGCTG	binding signal	2.86
CCGATTAACATCAGGGGGATTTATGATGTTAATCGGGTCTTGATTCGCTTGACGCTGCTG	binding signal	9.22
CCGATTAACATCAGGATTTACCCTGATGTTAATCGGGTCTTGATTCGCTTGACGCTGCTG	binding signal	4.29
CCGATTAACATCAAAATTTCCCTTGATGTTAATCGGGTCTTGATTCGCTTGACGCTGCTG	binding signal	8.26
CCGATTAACATCAACTCCCCCCCTGATGTTAATCGGGTCTTGATTCGCTTGACGCTGCTG	binding signal	4.56
CCGATTAACATCACCGTCCCCCCTGATGTTAATCGGGTCTTGATTCGCTTGACGCTGCTG	binding signal	4.43
CCGATTAACATCAGGGGAAGATATGATGTTAATCGGGTCTTGATTCGCTTGACGCTGCTG	binding signal	6.63
CCGATTAACATCAGGGATTACCCTGATGTTAATCGGGTCTTGATTCGCTTGACGCTGCTG	binding signal	10
CCGATTAACATCAGAAAAGTCCCTGATGTTAATCGGGTCTTGATTCGCTTGACGCTGCTG	binding signal	10.1
CCGATTAACATCAGAAATCCCACTGATGTTAATCGGGTCTTGATTCGCTTGACGCTGCTG	binding signal	2.54
CCGATTAACATCAGGGACAGCCCTGATGTTAATCGGGTCTTGATTCGCTTGACGCTGCTG	binding signal	4.69
CCGATTAACATCACTTCCCCCCATGATGTTAATCGGGTCTTGATTCGCTTGACGCTGCTG	binding signal	4.18
CCGATTAACATCAAACATTCCCTTGATGTTAATCGGGTCTTGATTCGCTTGACGCTGCTG	binding signal	4.96
CCGATTAACATCAGCATTCCCAATGATGTTAATCGGGTCTTGATTCGCTTGACGCTGCTG	binding signal	1.29
CCGATTAACATCAGGGGAATCAATGATGTTAATCGGGTCTTGATTCGCTTGACGCTGCTG	binding signal	6.47
CCGATTAACATCACCCTGGGAAATGATGTTAATCGGGTCTTGATTCGCTTGACGCTGCTG	binding signal	1.49
CCGATTAACATCAGGGGTAATTATGATGTTAATCGGGTCTTGATTCGCTTGACGCTGCTG	binding signal	4.02
CCGATTAACATCAGGTAATTTTATGATGTTAATCGGGTCTTGATTCGCTTGACGCTGCTG	binding signal	3.29
CCGATTAACATCAAATGTGGGAATGATGTTAATCGGGTCTTGATTCGCTTGACGCTGCTG	binding signal	1.53
CCGATTAACATCAGGGAAATATATGATGTTAATCGGGTCTTGATTCGCTTGACGCTGCTG	binding signal	5.66
CCGATTAACATCAGCCCGGGAAATGATGTTAATCGGGTCTTGATTCGCTTGACGCTGCTG	binding signal	2.27
CCGATTAACATCAGGGAGCTCCCTGATGTTAATCGGGTCTTGATTCGCTTGACGCTGCTG	binding signal	3.24
CCGATTAACATCAGATATTCCCCTGATGTTAATCGGGTCTTGATTCGCTTGACGCTGCTG	binding signal	9.63
CCGATTAACATCAAAAAATCCCATGATGTTAATCGGGTCTTGATTCGCTTGACGCTGCTG	binding signal	5.22

====

Measured binding signal by item
Target: GST-Nv-NF-kB (Ser allele) (Nematostella vectensis, UniProt A7UNT2 2-411)
Sequence: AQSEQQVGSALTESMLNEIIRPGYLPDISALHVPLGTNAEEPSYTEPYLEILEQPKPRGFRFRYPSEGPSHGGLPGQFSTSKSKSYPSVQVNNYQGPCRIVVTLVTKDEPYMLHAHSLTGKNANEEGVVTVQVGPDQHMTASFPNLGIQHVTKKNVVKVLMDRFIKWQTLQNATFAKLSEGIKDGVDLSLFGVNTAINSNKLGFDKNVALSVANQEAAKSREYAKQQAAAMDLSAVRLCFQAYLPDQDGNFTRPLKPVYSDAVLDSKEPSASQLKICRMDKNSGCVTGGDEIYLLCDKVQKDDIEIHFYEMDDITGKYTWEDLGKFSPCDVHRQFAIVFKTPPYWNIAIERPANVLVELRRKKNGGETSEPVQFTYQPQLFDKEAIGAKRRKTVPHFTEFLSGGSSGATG
Assay: protein-binding microarray (PBM); PBM: ~300 nM protein, 6 mM HEPES pH 7.8, 80 mM KCl, 0.5 mM EDTA, 0.5 mM EGTA, 6% glycerol, 35 ng/ul poly-dIdC, 1% milk, 1 h, room temperature; Ap Aiptasia and Nv Nematostella (sea anemones) / Co Capsaspora / Aq Amphimedon (sponge) / Dm Drosophila / Hu human; RHD is the Rel homology domain; high values mean tight binding
Conditions: dsDNA, one strand shown

construct.sequence	binding signal / z-score
CCGATTAACATCAGGGGGTTCCATGATGTTAATCGGGTCTTGATTCGCTTGACGCTGCTG	5.6
CCGATTAACATCAAAGTCCCCCCTGATGTTAATCGGGTCTTGATTCGCTTGACGCTGCTG	5.95
CCGATTAACATCATGGGGGGAAATGATGTTAATCGGGTCTTGATTCGCTTGACGCTGCTG	7.43
CCGATTAACATCAGGGAAAATAATGATGTTAATCGGGTCTTGATTCGCTTGACGCTGCTG	8.05
CCGATTAACATCAAGGGGGATTATGATGTTAATCGGGTCTTGATTCGCTTGACGCTGCTG	8.59
CCGATTAACATCAAAAATCCACCTGATGTTAATCGGGTCTTGATTCGCTTGACGCTGCTG	3.34
CCGATTAACATCAAATACCCCCATGATGTTAATCGGGTCTTGATTCGCTTGACGCTGCTG	4.86
CCGATTAACATCAGGGAAAAAAATGATGTTAATCGGGTCTTGATTCGCTTGACGCTGCTG	7.5
CCGATTAACATCAAAAAGCCCCCTGATGTTAATCGGGTCTTGATTCGCTTGACGCTGCTG	7.92
CCGATTAACATCAGGGTTCCCCATGATGTTAATCGGGTCTTGATTCGCTTGACGCTGCTG	5.17
CCGATTAACATCAGGGAATACACTGATGTTAATCGGGTCTTGATTCGCTTGACGCTGCTG	2.21
CCGATTAACATCACAACTCCCCCTGATGTTAATCGGGTCTTGATTCGCTTGACGCTGCTG	5.89
CCGATTAACATCAGGGGATACACTGATGTTAATCGGGTCTTGATTCGCTTGACGCTGCTG	5.34
CCGATTAACATCAAGGGAAATTCTGATGTTAATCGGGTCTTGATTCGCTTGACGCTGCTG	7.46
